Data origin, for the record: PubChem BioAssay AID192

system: BDF1 mice, B16 melanoma ip, median survival T/C; assay: NCI In Vivo Anticancer Drug Screen. Data for tumor model B16 Melanoma (intraperitoneal) in B6D2F1 (BDF1) mice; details: endpoint: median survival time; dose: 12.5 mg/kg/injection; schedule: Q01DX009 (ip); vehicle: Klucel (hydroxypropylcellulose) (HPC); higher = longer survival
Inconclusive results and toxic doses are left out.
OBSERVED PROPERTY: T/C

Solved entries:
Request: Endpoint output: T/C of O=C(Nc1cc(C(F)(F)F)ccc1Cl)c1cccc(C(=O)Nc2cc(C(F)(F)F)ccc2Cl)c1 . Value?
Response: 101 % of control

Request: Could you share which T/C value was measured for COC(=O)C1C(O)C(C)C(O)C(C)/C=C\C=C(C)C(=O)Nc2c(C)c(OC(C)=O)c3c(c2O)C(=O)C(C)=C2OCOC(=C23)C(C)=CC(C)(O)C(O)C(C)C1O (stereo not given) ?
Response: 112 % of control

Request: Using the record for c1ccc([B-]2([C+]3CCCCC3)N3CCCCC3C3CCCCN32)cc1 (stereo not given) , report its T/C.
Response: 106 % of control

Request: Would you kindly share the measured T/C for N#CC(=C1C=CC(=NO)C=C1)c1ccccc1 ?
Response: 100 % of control

Request: Would you kindly share the measured T/C for CCO/C=C1\SC(=S)N(c2ccccc2OC)C1=O ?
Response: 109 % of control

Request: Given the entry CCOC(=O)c1cnc(SC)nc1Nc1c(Br)cc(Br)cc1Br , report its measured T/C.
Response: 106 % of control

Parameters: items (list). Returns: T/C for each item.
1. O=C1CCNC(=O)N1OS(=O)(=O)c1ccccc1
2. O=S1(=O)OCc2ccccc21
3. O=S(=O)(SC(S(=O)(=O)c1ccccc1)S(=O)(=O)c1ccccc1)c1ccccc1
4. CCNC(Cc1ccccc1)c1ccc(OC)cc1 (stereo not given)

Response:
["100 % of control", "115 % of control", "99 % of control", "106 % of control"]

----------
test system: BDF1 mice, B16 melanoma ip, median survival T/C; assay: NCI In Vivo Anticancer Drug Screen. Data for tumor model B16 Melanoma (intraperitoneal) in B6D2F1 (BDF1) mice; conditions: endpoint: median survival time; dose: 2.5 mg/kg/injection; schedule: Q01DX009 (ip); vehicle: saline with Tween-80; higher = longer survival
Toxic doses and inconclusive results are not listed.
OBSERVED PROPERTY: T/C

Examples with their reported T/C follow.
Request: Entry under review: Cn1c(CC#N)c(C[N+](C)(C)C)c2ccccc21 . Reported T/C?
Response: 86 % of control

Request: Look at this compound and give its reported T/C. O=C1C=C[C@H](O)[C@@]2(CO)O[C@@H]12
Response: 101 % of control

Parameters: items (list). Returns: T/C for each item.
1. CC(=O)Nc1cc(F)c([N+](=O)[O-])cc1[N+](=O)[O-]
2. CC(=O)O[C@@H]1[C@@H](O)[C@H]2O[C@@H]3C=C(C)CC[C@]3(CO)[C@]1(C)[C@@]21CO1

Response:
1. 104 % of control
2. 103 % of control

----------
Consider the following compounds; for each one, report its T/C.
test system: BDF1 mice, B16 melanoma ip, median survival T/C; test: NCI In Vivo Anticancer Drug Screen. Data for tumor model B16 Melanoma (intraperitoneal) in B6D2F1 (BDF1) mice; conditions: endpoint: median survival time; dose: 200.0 mg/kg/injection; schedule: Q04DX003 (ip); vehicle: saline; higher = longer survival
Inconclusive results and toxic doses are left out.

# example entries with known answers
Request: For the compound CC(NC(=O)C(F)(F)F)C(=O)O (stereo not given) , what T/C is on record?
Response: 86 % of control

Request: Item under review: OC1CC2CCC(C1)N2CCCN1c2ccccc2Sc2ccc(Cl)cc21 (stereo not given) . Reported T/C?
Response: 88 % of control

Request: Any idea what its T/C is? The compound is O=[N+]([O-])c1cccc(P(=O)(c2cccc([N+](=O)[O-])c2)c2cccc([N+](=O)[O-])c2)c1
Response: 100 % of control

Request: Quick check: T/C of COc1cc(C(=O)Nc2ccc(N(C)C)cc2)cc(OC)c1OC ?
Response: 108 % of control

Request: Look up T/C for this compound: COC(=O)C(C)CN1CCCCC1 (stereo not given)
Response: 105 % of control

Below is a list of compounds. For each, state its recorded T/C.
1. O=C(O)CC[P+](c1ccccc1)(c1ccccc1)c1ccccc1
2. C=CCOCC(O)CO (stereo not given)
3. CN(C)c1ccc(C(=O)c2ccc(N(C)C)cc2)cc1
4. CC(C)(O)C(I)C[n+]1ccccc1 (stereo not given)

Response:
1. 116 % of control
2. 93 % of control
3. 111 % of control
4. 101 % of control

Request: So what's the measured T/C for this one? CN(C)C1CCN(Cc2ccccc2)CC1
Response: 93 % of control

----------
Test system: BDF1 mice, B16 melanoma ip, median survival T/C
Assay: NCI In Vivo Anticancer Drug Screen. Data for tumor model B16 Melanoma (intraperitoneal) in B6D2F1 (BDF1) mice
Conditions: endpoint: median survival time; dose: 2.0 mg/kg/injection; schedule: Q01DX009 (ip); vehicle: Klucel (hydroxypropylcellulose) (HPC); higher = longer survival
Method: The antitumor activity of compounds was measured in mice bearing transplantable tumors. Survival or tumor size were measured and the results are expressed as the measurement made in the treated group (T) divided by the measurement made in the vehicle treated control group (C). The tumor model used in this assay is B16 Melanoma (intraperitoneal) in B6D2F1 (BDF1) mice
Inconclusive results and toxic doses are left out.
OBSERVED PROPERTY: T/C

Answered examples (3):
Request: # query: T/C of entry C[n+]1c(/C=C\C=C\N2CCCCC2)sc2ccccc21
Response: 105 % of control

Request: Endpoint output: T/C of Cn1c(=O)c2[nH]c(Cc3ccc4c(c3)OCO4)nc2n(C)c1=O . Value?
Response: 93 % of control

Request: What T/C value was documented for this molecule, Cc1cc2c(C(C)C)c(O)c(O)c(C=O)c2c(O)c1-c1c(C)cc2c(C(C)C)c(O)c(O)c(C=O)c2c1O ?
Response: 104 % of control

Next molecule, please.
Request: Returns the measured T/C for the input molecule. Input: C[C@H]1CN1C1=CC(=O)C(N2C[C@@H]2C)=CC1=O
Response: 123 % of control

----------
system: BDF1 mice, B16 melanoma ip, median survival T/C; test: NCI In Vivo Anticancer Drug Screen. Data for tumor model B16 Melanoma (intraperitoneal) in B6D2F1 (BDF1) mice; settings: endpoint: median survival time; dose: 100.0 mg/kg/injection; schedule: Q01DX009 (ip); vehicle: Klucel (hydroxypropylcellulose) (HPC); higher = longer survival
Inconclusive results and toxic doses are left out.
Assignment: determine reported T/C for the given compounds.

Guide cases for T/C, answers given:
Request: Quick one: T/C of Nc1c(Br)cc2c(c1Br)Cc1cc(Cl)ccc1-2 ?
Response: 107 % of control

Request: Report T/C for CCOc1ccc(NC(=O)c2ccccc2Cl)cc1 please.
Response: 93 % of control

Request: Record request: T/C value, item CNC(=O)NCc1ccc(C(=O)NC(C)C)cc1
Response: 99 % of control

Request: Please give the measured T/C for this compound: CC1CCCN(C)C1 (centres undefined)
Response: 120 % of control

Request: Dear colleague, I am looking for the recorded T/C of the following compound: O=C(C(=O)c1cc(Br)ccc1O)c1cc(Br)ccc1O
Response: 96 % of control

Request: # query: T/C of entry CC(C)N1CSC(=S)N(Cc2ccccc2)C1
Response: 96 % of control

// for each compound below, give its T/C
1. CC1CCC2(C)CCC3(C)C(=CCC4C5(C)CCC(O)C(C)(C)C5CCC43C)C2C1C (centres undefined)
2. CCCCCCCCCCCCNC(=O)Nc1cc(C)ccc1C
3. Clc1ccc(Br)c(Cl)c1

Response:
1. 97 % of control
2. 92 % of control
3. 93 % of control

----------
test system: BDF1 mice, B16 melanoma ip, median survival T/C; test: NCI In Vivo Anticancer Drug Screen. Data for tumor model B16 Melanoma (intraperitoneal) in B6D2F1 (BDF1) mice; settings: endpoint: median survival time; dose: 400.0 mg/kg/injection; schedule: Q04DX003 (ip); vehicle: Klucel (hydroxypropylcellulose) (HPC); higher = longer survival
Inconclusive results and toxic doses are left out.
For each of the compounds below, state its T/C.

Recorded results for 6 compounds are shown here.
Request: Notebook entry, BDF1 mice, B16 melanoma ip, median survival T/C assay: T/C of Cc1ccc2nc3c4ccccc4c4ccccc4c3nc2c1 = ?
Response: 91 % of control

Request: Hi! What's the reported T/C for CCOC(=O)C1CCCN(S(=O)(=O)c2ccc(C)cc2)c2ccccc2C1=O (configuration not stated) on BDF1 mice, B16 melanoma ip, median survival T/C?
Response: 95 % of control

Request: Provide the documented T/C with BDF1 mice, B16 melanoma ip, median survival T/C as the system for Cc1noc(/N=C/c2ccccc2)c1C
Response: 108 % of control

Request: Missing value: T/C, BDF1 mice, B16 melanoma ip, median survival T/C, entry c1ccc(CN=C(c2ccccc2)c2ccccc2)cc1 . Fill in?
Response: 100 % of control

Request: Any idea what T/C came out for Cc1cccc(NC(=O)Nc2cccc(Cl)c2)c1C on BDF1 mice, B16 melanoma ip, median survival T/C?
Response: 103 % of control

Request: Could you share what T/C was measured for COc1ccc(C2CCC(=O)CC2C(=O)O)cc1 (configuration not stated) , tested on BDF1 mice, B16 melanoma ip, median survival T/C?
Response: 100 % of control

Switching to the query record.
Request: Hello, I am looking for reported T/C with BDF1 mice, B16 melanoma ip, median survival T/C for NC(CO)C(O)c1ccc([N+](=O)[O-])cc1 (configuration not stated) . Could you help?
Response: 86 % of control
